Sourced from patent US20250205234A1

target: M. smegmatis 166M c-subunit mutant IMVs (Mycolicibacterium smegmatis, UniProt A0R201+A0R205+A0R206, I70M); experiment: biochemical; details: read-out: IC50 ATP synthesis, 166M mutant IMVs
parameter: IC50 (nM)

{"columns": ["compound_structure", "parameter", "measured_result"],
 "data": [
  ["CCNc1cc(C)nc(Nc2ccc3nc(-c4ccc(Cl)cc4)[nH]c3c2)n1", "IC50", 64]
]}
